Test: Toxicity (LD50)
Conditions: mouse, in vivo, ip
Description: The obtained results are summarized in the following table, which also reports the toxicities of the tested substances, expressed as LD50 values. For comparison purposes, also the activity of two known compounds was determined. The known compounds are 1-methyl-3,5-diphenyl-1,2,4-triazole (Compound A, Atkinson et al. Journ. Chem. Soc., 1954, 141, 1954) and 1-methyl-3-phenyl-5-(p-chlorophenyl)-1,2,4-triazole (Compound B, Huisgen et al., Journ. Org. Chem., 24, 892, 1959).
OUTCOME MEASURE: LD50 (mg/kg)
Report the figure in mg/kg without appending any unit label.

COc1cccc(-c2nc(-c3ccccc3CO)n(C)n2)c1 : 1000

Q: Consider the compound "Cc1cccc(-c2nc(-c3ccccc3CO)n(C)n2)c1" and give its measured LD50.
A: 500
